Sourced from paper PMC3069973

Test system: nicotinic acetylcholine receptor (native nAChRs of silkworm larval brain neurons, subunits not identified)
Construct: native receptors in cultured larval brain neurons
Assay: whole-cell patch-clamp, block of peak ACh-induced current (slowly desensitizing current IC50 […])
Assay type: cell-based, Bombyx mori
experimental-readout: IC50 (nM)

INSERT INTO assay_data (smiles_string, numeric_value) VALUES
  ('C[C@H]1CCN2C[C@]34C[C@]5(CC(=O)N(C)C5=O)C(C)(C)[C@@H]3C[C@]12C(=O)N4C', 20.2);
